Ref: ChEMBL document CHEMBL3507680

Recorded cytotoxicity at 70.5 h, one value per entry.
# ASSAY: Human HepG2 cell viability assay in 384 well format
# Format: toxicity, cell-based
# Set-up: dose 125 nL, time 70.5 hour; concentration not given beside the values
# REPORTED_CONDITIONS: HepG2 cells, read-out: Inhibition
VALUE_KIND: cytotoxicity at 70.5 h (%)

>>> test_result("Cc1cc(C(F)(F)F)nc(CNc2nc(C)nc3c2cnn3C)n1")
-7.38
>>> test_result("COc1ccc(C)cc1-n1c(COC(C)C)n[nH]c1=O")
-18.9
>>> test_result("Cc1nc(CN2CCC3(C2)CN(Cc2ccco2)C3)cs1")
-3.68
>>> test_result("Clc1ccc(NCc2nnc(C3CC3)o2)cc1Cl")
24.8
>>> test_result("Cc1ccc(S(=O)(=O)N2C[C@H]3C[C@H](NC(=O)c4ccccn4)[C@H]3C2)cc1")
56.3
>>> test_result("O=c1[nH]c(NCCO)nc2c1C1(CCCCC1)Cc1ccccc1-2")
-1.9
>>> test_result("COCC1CN(C(=O)COc2ccccc2C)Cc2ncn(C)c21 (stereo unspecified)")
-4.45
>>> test_result("CC(=O)N1CCC(NC(=O)c2cc(Cl)ccc2O)CC1")
-4.41
>>> test_result("Cc1nnc2n1CCN(CCOc1ccccc1)C2")
-11.4
>>> test_result("Cc1ccc(CN2CC[C@H]3C(=O)N(Cc4cccnc4)CCO[C@H]3C2)o1")
-8.65
>>> test_result("CC(CC(F)(F)F)NCc1ccccc1-n1ccnc1 (stereo unspecified)")
-10.9

---

# ASSAY: Human HepG2 cell viability assay in 384 well format
# Format: toxicity, cell-based
# Parameters: dose 125 nL, time 70.5 hour; concentration not given beside the values
# REPORTED_CONDITIONS: HepG2 cells, read-out: Inhibition
Readings of cytotoxicity at 70.5 h for the listed compounds
VALUE_KIND: cytotoxicity at 70.5 h (%)

>>> test_result("CC(C)(C)CN[C@@H]1CO[C@H](CNC(=O)c2cccs2)[C@H]1O")
4.02
>>> test_result("Cc1ccsc1CNC(=O)Nc1ccn(CCN2CCOCC2)n1")
14.8
>>> test_result("CN(C(=O)COC1CCCCC1)C1CCN(CC2CCOC2)CC1 (stereo unspecified)")
-1.92
>>> test_result("CC(C)n1cnnc1CN(C)C(=O)c1cnn2ccccc12")
4.09
>>> test_result("COCCS(=O)(=O)c1ncc(CN(C)C)n1Cc1ccccc1")
4.62
>>> test_result("Oc1ccccc1N1CCN(c2ncnc3sc4c(c23)CCNC4)CC1")
2.19
>>> test_result("COC[C@@]12CC[C@@H](N3CCOCC3)C[C@H]1CCN(c1cc(C)ccn1)C2")
-1.61
>>> test_result("CCOC(=O)CN1C[C@@H]2OCCN(c3ncc(F)cn3)[C@@H]2C1")
21.2
>>> test_result("COC1CN(C(=O)OCC(C)C)CCC(=O)N(C)c2ccccc21 (stereo unspecified)")
-4.55
>>> test_result("c1ccc2oc(C3CCN(Cc4ncon4)CC3)nc2c1")
-0.981
>>> test_result("CCn1ccnc1CN1CCN(CC(O)c2cccc(F)c2)CC1 (stereo unspecified)")
-5.97
>>> test_result("O=C(NCCn1nc(C2CCNC2)c2cccnc21)c1ccccc1 (stereo unspecified)")
-4.57
>>> test_result("CCn1cnnc1Cn1cccc(C(F)(F)F)c1=O")
4.98
>>> test_result("Cc1nn(C)cc1-c1cc(C(=O)NCC(C)(C)c2ccc(F)cc2)n[nH]1")
4.21
>>> test_result("Cc1cc(-c2cnc(NC3CC3)nc2-c2ccco2)on1")
-12.6
>>> test_result("Cc1ccc(C(N)=O)c(N2C[C@H]3OC(=O)N(C4CCCC4)[C@H]3C2)n1")
-11.9
>>> test_result("COc1cc(Cl)ccc1C(=O)N1CCCC(c2cc(C)[nH]n2)C1 (stereo unspecified)")
36.1
>>> test_result("CCc1nnc(NC(=O)CCN2CC=C(c3cnn(C)c3)CC2)s1")
-7.5
>>> test_result("O=c1cc(CN2CCCC2)nc2n1CCCN(S(=O)(=O)C1CC1)C2")
-1.37
>>> test_result("Cc1cc(C(F)(F)F)nc(C2CCN(C(=O)CO)CC2)n1")
-6.47
>>> test_result("COCCOCC(=O)Nc1ccc(C)cc1Cl")
-0.473
>>> test_result("O=S(=O)(C1CC1)N1CC[C@@H]2[C@@H]1CCN2Cc1cccs1")
-6.17
>>> test_result("NC(=O)c1cc2c(nc1Oc1cccc(CN3CCCC3)c1F)CCC2")
-13.8
>>> test_result("COCCC1(C(=O)O)CCCN(C(=O)c2cc(F)ccc2OC)C1 (stereo unspecified)")
-10.6
>>> test_result("COCC1CN(C(=O)C2=CCCC2)Cc2cnn(CC3CC3)c21 (stereo unspecified)")
-2.82
>>> test_result("COc1cc(C(=O)N(Cc2ccc(F)cc2)C2CC2)cc2c1OCCO2")
17.8
>>> test_result("CCOC(=O)c1cc(C(C)(O)CCC=C(C)C)on1 (stereo unspecified)")
-9.61
>>> test_result("COCCOc1ccnc(-c2noc([C@@H]3CCCN3C3CCC3)n2)c1")
-5.26
>>> test_result("Cc1cnc(NCCCN2CCc3ccccc32)nc1")
-3.85
>>> test_result("CCc1nc(C)sc1CN1CC[C@@](O)(C2CCOCC2)[C@H](C)C1")
-12.2
>>> test_result("Cc1cn2c(n1)C(CNCc1cccc3c1OCO3)CCC2 (stereo unspecified)")
23.3
>>> test_result("Cc1cc(C(=O)NCc2c(C)nn(C)c2C)nc(N2CCOCC2)n1")
-1.14
>>> test_result("CCc1nnc2n1CCN(C(C(=O)NC1CC1)c1ccc(F)cc1)C2 (stereo unspecified)")
-15.2
>>> test_result("CN(Cc1ccc(F)cc1)[C@@H]1CN(S(C)(=O)=O)C[C@H]1O")
-4.5
>>> test_result("CC(C)C(C)NC(=O)c1cc(Br)c2c(c1)OCCO2 (stereo unspecified)")
-4.14
>>> test_result("COc1ccc2c(c1)C(=O)N(C)C1(CCN(C(=O)OC(C)(C)C)CC1)N2")
1.71
>>> test_result("CN(Cc1noc(C2CC2)n1)C1CCN(CCn2cc(C#N)cn2)C1 (stereo unspecified)")
22.1
>>> test_result("O=C(Cc1n[nH]c(-c2cncc(Br)c2)n1)NCc1cccnc1")
-9.48
>>> test_result("COC(=O)CCC(=O)N1CCc2[nH]nc(-c3ccc(F)c(F)c3)c2C1")
-8.06
>>> test_result("CN(C)[C@@H]1CCN(C(=O)Cc2ccc(F)cc2)[C@H]1Cc1ccncc1")
-15.9
>>> test_result("Cc1ncc(C)c(N2CCCC(CO)(Cc3cccc(Cl)c3)C2)n1 (stereo unspecified)")
1.75
>>> test_result("O=C(Cc1cccnc1)NCCS(=O)(=O)c1ccccc1F")
-7.32
>>> test_result("Cn1cc(C2CCCN2Cc2cscn2)cn1 (stereo unspecified)")
-2.56
>>> test_result("O=c1c(NCCOCCO)c(N2CCN(c3ccccc3)CC2)c1=O")
-2.63
>>> test_result("CCN1CC2(CCC1=O)CCN(Cc1cccc(OC(F)F)c1)CC2")
20.5
>>> test_result("O=C(C1CC1)N1CCN(c2ccc(-n3cncn3)nn2)CC1")
-3.85

---

# ASSAY: Human HepG2 cell viability assay in 384 well format
# Format: toxicity, cell-based
# Set-up: dose 125 nL, time 70.5 hour; concentration not given beside the values
# REPORTED_CONDITIONS: HepG2 cells, read-out: Inhibition
cytotoxicity at 70.5 h by entry:
VALUE_KIND: cytotoxicity at 70.5 h (%)

>>> test_result("CC1CC(=O)c2cc(C(=O)N3CCc4ccccc43)c(=O)[nH]c2C1 (stereo unspecified)")
-1.11
>>> test_result("CC(C)c1nnc(CN2CCN(C(C)c3nc(C4CC4)no3)CC2)o1 (stereo unspecified)")
-3.84
>>> test_result("COc1cccc(C(O)CN2CCN(c3cccc(C)c3)CC2)c1 (stereo unspecified)")
0.851
>>> test_result("Cc1cccn2cc(C(=O)N3CCCN(CC4CC4)C(C(C)C)C3)nc12 (stereo unspecified)")
-8.2
>>> test_result("CC1(C)CN(C(CNS(C)(=O)=O)c2ccc(Cl)cc2)CCO1 (stereo unspecified)")
-5.58
>>> test_result("CCc1cnc(CN2CCOC(c3nc(C)n[nH]3)C2)o1 (stereo unspecified)")
-7.69
>>> test_result("Cc1cccc(-c2ccc(C(=O)NCC3CCCO3)c(=O)[nH]2)c1 (stereo unspecified)")
-10.2
>>> test_result("CS(=O)(=O)c1cccc(C(N)c2ccc(F)cc2)c1 (stereo unspecified)")
-3.93
>>> test_result("Cc1oc(C(C)C)cc1C(=O)N1C[C@H]2CC[C@@H]1CN(c1ncccn1)C2")
-13.7
>>> test_result("CCc1ccccc1Nc1noc2c1CN(C(=O)CCOC)CC2")
18.8
>>> test_result("O=C(NCc1cc2n(n1)CCCNC2)c1cn2cc(Cl)ccc2n1")
-2.1
